# System: DU-145 prostate
# Method Notes: NCI-60 one-dose screen, 48 h
# Condition Context: 10 µM unless noted
This is part of a sample that, as a whole, favours compounds with a hit. Of some 83,000 tested, about 20% had one in any assay. Calls of active or inactive are those of the source. The calls were made as follows: active = growth percent below 10; inactive = the rest.
Select the matching outcome among active, inactive

Here's what some known entries look like.
CC(C)c1ccc2nc3ccc(C(=O)NCCN4CCN(c5ccccc5)CC4)cn3c(=O)c2c1	inactive
O[C@H]1[C@H]2c3cc4c(cc3CN3CCC(=C[C@@H]1O)[C@H]23)OCO4	active
COc1ccccc1/C=C\C(=O)c1ccccc1	inactive
NC(=S)N/N=C\c1nccc2c(C(F)(F)C(F)(F)C(F)(F)F)cccc12	active
CN(C)c1ccc(/C=N/N=C(\C#N)[S][Sn]([Cl])([c]2ccccc2)[c]2ccccc2)cc1	active

Task: How was COC(=O)c1nc(=S)[nH]c(C(=O)OC)c1C(=O)c1ccccn1 classified in this test?
Result: inactive

Task: State the result this test recorded for Cc1ccc2c(ccc3c[n+]4c5ccccc5ccc4n32)c1 .
Result: inactive

Task: Test call for this compound, please: O=C(Nc1ccc(F)cc1)ON=C1CCCCC1
Result: inactive

Task: Status in this test for O=C1C2=C(Nc3cc([N+](=O)[O-])ccc3N2)OC1c1c2ccccc2cc2ccccc12 (stereo unspecified) ?
Result: inactive

Task: Status in this test for COc1cc(/C=C(/C)C[N+](=O)[O-])ccc1O ?
Result: inactive
